measurement_target: human PPARγ- LBD (Homo sapiens)
Construct: a mixture of a human PPARγ- LBD labelled with glutathione S-transferase (GST)
Sequence (P37231 238-503 limits assumed): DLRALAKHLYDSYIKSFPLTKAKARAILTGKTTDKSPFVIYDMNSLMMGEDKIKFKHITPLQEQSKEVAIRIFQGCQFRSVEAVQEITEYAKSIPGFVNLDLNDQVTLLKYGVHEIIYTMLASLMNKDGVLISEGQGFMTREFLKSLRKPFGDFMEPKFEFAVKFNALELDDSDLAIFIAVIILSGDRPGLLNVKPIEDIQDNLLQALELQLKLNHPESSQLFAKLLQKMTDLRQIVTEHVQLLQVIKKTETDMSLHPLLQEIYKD
test_summary: Lanthascreen TR-FRET PPARγ competitive binding assay
settings: TR-FRET, 0.16 µM
Measured Raw Data, listed per entry.
recorded_metric: Raw Data (RLU)

# compound, recorded_metric, value
data = [
    ("C=CCc1ccc(OCC(=O)Nc2cccc(C(F)(F)F)c2)c(OC)c1 [Compound 1d]", "Raw Data", 1.945),
    ("C=CCc1ccc(OCC(=O)Nc2ccccc2)c(OC)c1 [Compound 1a]", "Raw Data", 1.971),
    ("C=CCc1ccc(OCC(=O)Nc2ccccc2Cl)c(OC)c1 [Compound 1f]", "Raw Data", 1.711),
    ("C=CCc1ccc(OCC(=O)Nc2cccc(Cl)c2)c(OC)c1 [Compound 1e]", "Raw Data", 1.922),
    ("C=CCc1ccc(OCC(=O)Nc2ccc([N+](=O)[O-])cc2)c(OC)c1 [Compound 1b]", "Raw Data", 1.896),
    ("C=CCc1ccc(OCC(=O)Nc2ccccc2C)c(OC)c1 [Compound 1c]", "Raw Data", 1.994),
]

* * *

Tested on: human red blood cells (HRBC)
test_summary: HRBC membrane stabilization method
settings: 6.25 µM; mean ± SD (n = 3)
recorded_metric: HRBC membrane stabilization (percentage protection against HRBC lysis) (%)

# compound, value
rows = [
    ("C=CCc1ccc(OCC(=O)Nc2ccccc2Cl)c(OC)c1", 15.17),
    ("C=CCc1ccc(OCC(=O)Nc2ccccc2)c(OC)c1", 4.79),
    ("O=C(O)Cc1ccccc1Nc1c(Cl)cccc1Cl [Standard Diclofenac, Diclofenac, reference compound]", 15.99),
    ("C=CCc1ccc(OCC(=O)Nc2cccc(Cl)c2)c(OC)c1", 12.36),
    ("C=CCc1ccc(OCC(=O)Nc2ccccc2C)c(OC)c1", 6.21),
    ("C=CCc1ccc(OCC(=O)Nc2ccc([N+](=O)[O-])cc2)c(OC)c1", 3.19),
    ("C=CCc1ccc(OCC(=O)Nc2cccc(C(F)(F)F)c2)c(OC)c1", 8.85),
]

* * *

measurement_target: human PPARγ- LBD (Homo sapiens, UniProt P37231)
Construct: a mixture of a human PPARγ- LBD labelled with glutathione S-transferase (GST)
test_summary: Lanthascreen TR-FRET PPARγ competitive binding assay
settings: TR-FRET, 4 µM
Measured Raw Data - Background, listed per entry.
recorded_metric: Raw Data - Background (RLU)

# compound_structure_string, measurement_target, value
records = [
    ("C=CCc1ccc(OCC(=O)Nc2ccccc2Cl)c(OC)c1", "human PPARγ- LBD (Homo sapiens, UniProt P37231)", 1.542),
    ("C=CCc1ccc(OCC(=O)Nc2ccc([N+](=O)[O-])cc2)c(OC)c1", "human PPARγ- LBD (Homo sapiens, UniProt P37231)", 1.596),
    ("C=CCc1ccc(OCC(=O)Nc2cccc(C(F)(F)F)c2)c(OC)c1", "human PPARγ- LBD (Homo sapiens, UniProt P37231)", 1.307),
    ("C=CCc1ccc(OCC(=O)Nc2ccccc2C)c(OC)c1", "human PPARγ- LBD (Homo sapiens, UniProt P37231)", 1.096),
    ("C=CCc1ccc(OCC(=O)Nc2ccccc2)c(OC)c1", "human PPARγ- LBD (Homo sapiens, UniProt P37231)", 1.483),
    ("C=CCc1ccc(OCC(=O)Nc2cccc(Cl)c2)c(OC)c1", "human PPARγ- LBD (Homo sapiens, UniProt P37231)", 1.522),
]

* * *

Measured HRBC membrane stabilization (percentage protection against HRBC lysis), listed per entry.
System: human red blood cells (HRBC)
test_summary: HRBC membrane stabilization method
settings: 200 µM; mean ± SD (n = 3)
recorded_metric: HRBC membrane stabilization (percentage protection against HRBC lysis) (%)

# molecule, value
records = [
    ("C=CCc1ccc(OCC(=O)Nc2ccc([N+](=O)[O-])cc2)c(OC)c1", 45.07),
    ("C=CCc1ccc(OCC(=O)Nc2ccccc2Cl)c(OC)c1", 73.43),
    ("C=CCc1ccc(OCC(=O)Nc2ccccc2)c(OC)c1", 47.23),
    ("C=CCc1ccc(OCC(=O)Nc2ccccc2C)c(OC)c1", 50.92),
    ("C=CCc1ccc(OCC(=O)Nc2cccc(C(F)(F)F)c2)c(OC)c1", 56.45),
    ("O=C(O)Cc1ccccc1Nc1c(Cl)cccc1Cl [Standard Diclofenac, Diclofenac, reference compound]", 76.87),
    ("C=CCc1ccc(OCC(=O)Nc2cccc(Cl)c2)c(OC)c1", 66.05),
]

* * *

measurement_target: human PPARγ- LBD (Homo sapiens)
Construct: a mixture of a human PPARγ- LBD labelled with glutathione S-transferase (GST)
test_summary: Lanthascreen TR-FRET PPARγ competitive binding assay
settings: TR-FRET, 0.00128 µM
Measured Raw Data - Background, listed per entry.
recorded_metric: Raw Data - Background (RLU)

# molecule, recorded_metric, value
data = [
    ("C=CCc1ccc(OCC(=O)Nc2cccc(Cl)c2)c(OC)c1 [Compound 1e]", "Raw Data - Background", 1.678),
    ("C=CCc1ccc(OCC(=O)Nc2ccc([N+](=O)[O-])cc2)c(OC)c1 [Compound 1b]", "Raw Data - Background", 1.732),
    ("C=CCc1ccc(OCC(=O)Nc2cccc(C(F)(F)F)c2)c(OC)c1 [Compound 1d]", "Raw Data - Background", 1.79),
    ("C=CCc1ccc(OCC(=O)Nc2ccccc2)c(OC)c1 [Compound 1a]", "Raw Data - Background", 1.681),
    ("C=CCc1ccc(OCC(=O)Nc2ccccc2Cl)c(OC)c1 [Compound 1f]", "Raw Data - Background", 2),
    ("C=CCc1ccc(OCC(=O)Nc2ccccc2C)c(OC)c1 [Compound 1c]", "Raw Data - Background", 1.637),
]

* * *

measurement_target: human PPARγ- LBD (Homo sapiens)
Construct: a mixture of a human PPARγ- LBD labelled with glutathione S-transferase (GST)
test_summary: Lanthascreen TR-FRET PPARγ competitive binding assay
settings: TR-FRET, 0.8 µM
Procedure: Using the Lanthasreen TR-FRET assay, the synthesized compounds were first preliminary tested for the PPARγ binding affinity. […] A chemical under test displaces the tracer from PPAR-LBD, which lowers the TR-FRET ratio and decreases the FRET signal Figure 8 [33]. A multimode low-volume proxy plate reader was used to read the plates after one hour of incubation. […]
Measured Raw Data, listed per entry.

# compound_structure_string, units_label, Raw Data
data = [
    ("C=CCc1ccc(OCC(=O)Nc2cccc(C(F)(F)F)c2)c(OC)c1", "RLU", 2.018),
    ("C=CCc1ccc(OCC(=O)Nc2ccccc2Cl)c(OC)c1", "RLU", 1.881),
    ("C=CCc1ccc(OCC(=O)Nc2cccc(Cl)c2)c(OC)c1", "RLU", 1.820),
    ("C=CCc1ccc(OCC(=O)Nc2ccc([N+](=O)[O-])cc2)c(OC)c1", "RLU", 2.012),
    ("C=CCc1ccc(OCC(=O)Nc2ccccc2C)c(OC)c1", "RLU", 1.991),
    ("C=CCc1ccc(OCC(=O)Nc2ccccc2)c(OC)c1", "RLU", 1.899),
]

* * *

Measured inhibition at 25 µM, listed per entry.
measurement_target: UniProtKB P01012
Sequence (P01012 2-386): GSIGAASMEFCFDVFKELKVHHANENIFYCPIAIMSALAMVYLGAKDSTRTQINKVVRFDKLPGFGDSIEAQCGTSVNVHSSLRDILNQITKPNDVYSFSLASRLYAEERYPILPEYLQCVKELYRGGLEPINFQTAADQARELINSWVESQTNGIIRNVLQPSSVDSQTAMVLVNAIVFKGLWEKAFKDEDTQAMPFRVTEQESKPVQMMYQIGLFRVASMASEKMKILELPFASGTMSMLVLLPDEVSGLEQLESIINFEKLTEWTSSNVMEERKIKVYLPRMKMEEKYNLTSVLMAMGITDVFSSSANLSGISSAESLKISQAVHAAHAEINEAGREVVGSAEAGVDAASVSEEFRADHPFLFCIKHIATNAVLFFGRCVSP
test_summary: Albumin denaturation assay
Format: biochemical, hen
settings: 25 µM; mean ± SD (n = 3); read-out: Percentage inhibition of denaturation of albumin

# compound, inhibition at 25 µM [%]
data = [
    ("C=CCc1ccc(OCC(=O)Nc2ccccc2)c(OC)c1 [Compound 1a]", 10.2),
    ("C=CCc1ccc(OCC(=O)Nc2ccc([N+](=O)[O-])cc2)c(OC)c1 [Compound 1b]", 8.42),
    ("C=CCc1ccc(OCC(=O)Nc2cccc(Cl)c2)c(OC)c1 [Compound 1e]", 15.7),
    ("O=C(O)Cc1ccccc1Nc1c(Cl)cccc1Cl [Standard Diclofenac, Diclofenac, reference compound]", 28.2),
    ("C=CCc1ccc(OCC(=O)Nc2cccc(C(F)(F)F)c2)c(OC)c1 [Compound 1d]", 14),
    ("C=CCc1ccc(OCC(=O)Nc2ccccc2Cl)c(OC)c1 [Compound 1f]", 24.4),
    ("C=CCc1ccc(OCC(=O)Nc2ccccc2C)c(OC)c1 [Compound 1c]", 8.42),
]

Reference source for all entries: paper PMC10180488
